System: NCI-H1355
Assay: relative viability (nuclei count vs DMSO), 5 days (fraction); higher = more cells survive
Conditions: first compound 0.6325 µM
Each entry below carries its recorded relative viability.

{"Molecule": "Cc1csc(=NC2CCCCC2)n1/N=C/c1ccc(O)c(O)c1O [MIM1] + CCNC(=O)c1noc(-c2cc(C(C)C)c(O)cc2O)c1-c1ccc(CN2CCOCC2)cc1 [Luminespib] (partner 0.01 µM)", "Tested on": "NCI-H1355", "relative viability": 0.591}
{"Molecule": "Cc1csc(=NC2CCCCC2)n1/N=C/c1ccc(O)c(O)c1O [MIM1] + C[C@]1(O)C[C@@H](c2nc(-c3ccc4ccc(-c5ccccc5)nc4c3)c3c(N)nccn32)C1 [Linsitinib] (partner 1 µM)", "Tested on": "NCI-H1355", "relative viability": 0.882}
{"Molecule": "CN1CCN(CCOc2cc(OC3CCOCC3)c3c(Nc4c(Cl)ccc5c4OCO5)ncnc3c2)CC1 [Saracatinib] + C[C@]1(O)C[C@@H](c2nc(-c3ccc4ccc(-c5ccccc5)nc4c3)c3c(N)nccn32)C1 [Linsitinib] (partner 1 µM)", "Tested on": "NCI-H1355", "relative viability": 0.832}
{"Molecule": "Cc1csc(=NC2CCCCC2)n1/N=C/c1ccc(O)c(O)c1O [MIM1] + CC(=O)c1c(C)c2cnc(Nc3ccc(N4CCNCC4)cn3)nc2n(C2CCCC2)c1=O [Palbociclib] (partner 0.5 µM)", "Tested on": "NCI-H1355", "relative viability": 0.371}
{"Molecule": "CN1CCN(CCOc2cc(OC3CCOCC3)c3c(Nc4c(Cl)ccc5c4OCO5)ncnc3c2)CC1 [Saracatinib] + O=C(CCCCCCC(=O)Nc1ccccc1)NO [Vorinostat] (partner 1 µM)", "Tested on": "NCI-H1355", "relative viability": 0.7}

---

Test system: HCC-827
Assay: relative viability (nuclei count vs DMSO), 5 days (fraction); higher = more cells survive
Settings: first compound 0.02 µM
// boundary case: relative viability equal to 0.9 maps to FALSE; strictly smaller maps to TRUE

{"Compound": "CCNC(=O)c1noc(-c2cc(C(C)C)c(O)cc2O)c1-c1ccc(CN2CCOCC2)cc1 [Luminespib] + O=C(CCCCCCC(=O)Nc1ccccc1)NO [Vorinostat] (partner 1 µM)", "Assigned category": "TRUE"}
{"Compound": "CN1CCN(CCOc2cc(OC3CCOCC3)c3c(Nc4c(Cl)ccc5c4OCO5)ncnc3c2)CC1 [Saracatinib] + CS(=O)(=O)N1CCN(Cc2cc3nc(-c4cccc5[nH]ncc45)nc(N4CCOCC4)c3s2)CC1 [Pictilisib] (partner 1 µM)", "Assigned category": "FALSE"}
{"Compound": "CN1CCN(CCOc2cc(OC3CCOCC3)c3c(Nc4c(Cl)ccc5c4OCO5)ncnc3c2)CC1 [Saracatinib] + Nc1ncn([C@H]2C[C@H](O)[C@@H](CO)O2)c(=O)n1 [Decitabine] (partner 2 µM)", "Assigned category": "TRUE"}
{"Compound": "CN1CCN(CCOc2cc(OC3CCOCC3)c3c(Nc4c(Cl)ccc5c4OCO5)ncnc3c2)CC1 [Saracatinib] + N=C(N)NC(=N)NCCc1ccccc1 [Phenformin] (partner 250 µM)", "Assigned category": "TRUE"}

---

Tested on: NCI-H322M
Assay: relative viability (nuclei count vs DMSO), 5 days (fraction); higher = more cells survive
Settings: first compound 2 µM
In this section we review reported relative viability values for a set of compounds.

{"Compound": "Cc1csc(=NC2CCCCC2)n1/N=C/c1ccc(O)c(O)c1O [MIM1] + NC(=O)Nc1cc(-c2cccc(F)c2)sc1C(=O)N[C@H]1CCCNC1 [AZD7762] (partner 0.2 µM)", "Tested on": "NCI-H322M", "relative viability": 0.446}
{"Compound": "Cc1csc(=NC2CCCCC2)n1/N=C/c1ccc(O)c(O)c1O [MIM1] + CCNC(=O)c1noc(-c2cc(C(C)C)c(O)cc2O)c1-c1ccc(CN2CCOCC2)cc1 [Luminespib] (partner 0.01 µM)", "Tested on": "NCI-H322M", "relative viability": 0.832}
{"Compound": "CN1CCN(CCOc2cc(OC3CCOCC3)c3c(Nc4c(Cl)ccc5c4OCO5)ncnc3c2)CC1 [Saracatinib] + Cc1nc(NC(=O)N2CCC[C@H]2C(N)=O)sc1-c1ccnc(C(C)(C)C(F)(F)F)c1 [Alpelisib] (partner 2 µM)", "Tested on": "NCI-H322M", "relative viability": 0.639}

---

Test system: NCI-H1703
Assay: relative viability (nuclei count vs DMSO), 5 days (fraction); higher = more cells survive
Details: first compound 0.2 µM
Measured endpoint: relative viability

{"Compound": "CCNC(=O)c1noc(-c2cc(C(C)C)c(O)cc2O)c1-c1ccc(CN2CCOCC2)cc1 [Luminespib] + CS(=O)(=O)N1CCN(Cc2cc3nc(-c4cccc5[nH]ncc45)nc(N4CCOCC4)c3s2)CC1 [Pictilisib] (partner 1 µM)", "Endpoint value": 0.165}
{"Compound": "CCNC(=O)c1noc(-c2cc(C(C)C)c(O)cc2O)c1-c1ccc(CN2CCOCC2)cc1 [Luminespib] + CC1(C)CCC(c2ccc(Cl)cc2)=C(CN2CCN(c3ccc(C(=O)NS(=O)(=O)c4ccc(N[C@H](CCN5CCOCC5)CSc5ccccc5)c(S(=O)(=O)C(F)(F)F)c4)cc3)CC2)C1 [Navitoclax] (partner 0.5 µM)", "Endpoint value": 0.138}
{"Compound": "Cc1csc(=NC2CCCCC2)n1/N=C/c1ccc(O)c(O)c1O [MIM1] + NC(=O)Nc1cc(-c2cccc(F)c2)sc1C(=O)N[C@H]1CCCNC1 [AZD7762] (partner 0.2 µM)", "Endpoint value": 0.124}
{"Compound": "CCNC(=O)c1noc(-c2cc(C(C)C)c(O)cc2O)c1-c1ccc(CN2CCOCC2)cc1 [Luminespib] + C[C@]1(O)C[C@@H](c2nc(-c3ccc4ccc(-c5ccccc5)nc4c3)c3c(N)nccn32)C1 [Linsitinib] (partner 1 µM)", "Endpoint value": 0.123}
{"Compound": "Cc1csc(=NC2CCCCC2)n1/N=C/c1ccc(O)c(O)c1O [MIM1] + CS(=O)(=O)N1CCN(Cc2cc3nc(-c4cccc5[nH]ncc45)nc(N4CCOCC4)c3s2)CC1 [Pictilisib] (partner 1 µM)", "Endpoint value": 0.219}
{"Compound": "CN1CCN(CCOc2cc(OC3CCOCC3)c3c(Nc4c(Cl)ccc5c4OCO5)ncnc3c2)CC1 [Saracatinib] + CS(=O)(=O)CCNCc1ccc(-c2ccc3ncnc(Nc4ccc(OCc5cccc(F)c5)c(Cl)c4)c3c2)o1 [Lapatinib] (partner 2 µM)", "Endpoint value": 1.02}
{"Compound": "CCNC(=O)c1noc(-c2cc(C(C)C)c(O)cc2O)c1-c1ccc(CN2CCOCC2)cc1 [Luminespib] + NC(=O)Nc1cc(-c2cccc(F)c2)sc1C(=O)N[C@H]1CCCNC1 [AZD7762] (partner 0.2 µM)", "Endpoint value": 0.114}
{"Compound": "CCNC(=O)c1noc(-c2cc(C(C)C)c(O)cc2O)c1-c1ccc(CN2CCOCC2)cc1 [Luminespib] + CC(C)C[C@H](NC(=O)[C@H](Cc1ccccc1)NC(=O)c1cnccn1)B(O)O [Bortezomib] (partner 0.002 µM)", "Endpoint value": 0.14}
{"Compound": "CCNC(=O)c1noc(-c2cc(C(C)C)c(O)cc2O)c1-c1ccc(CN2CCOCC2)cc1 [Luminespib] + O=C(c1cc(Cc2n[nH]c(=O)c3ccccc23)ccc1F)N1CCN(C(=O)C2CC2)CC1 [Olaparib] (partner 8 µM)", "Endpoint value": 0.104}
{"Compound": "Cc1csc(=NC2CCCCC2)n1/N=C/c1ccc(O)c(O)c1O [MIM1] + CS(=O)(=O)CCNCc1ccc(-c2ccc3ncnc(Nc4ccc(OCc5cccc(F)c5)c(Cl)c4)c3c2)o1 [Lapatinib] (partner 2 µM)", "Endpoint value": 1.02}

---

Tested on: HCC-827
Assay: relative viability (nuclei count vs DMSO), 5 days (fraction); higher = more cells survive
Details: first compound 0.8 µM

{"Compound": "Nc1cccc2c1CN(C1CCC(=O)NC1=O)C2=O (centres undefined) [Lenalidomide] + N=C(N)NC(=N)NCCc1ccccc1 [Phenformin] (partner 250 µM)", "Tested on": "HCC-827", "relative viability": 0.425}
{"Compound": "Nc1cccc2c1CN(C1CCC(=O)NC1=O)C2=O (centres undefined) [Lenalidomide] + NC(=O)Nc1cc(-c2cccc(F)c2)sc1C(=O)N[C@H]1CCCNC1 [AZD7762] (partner 0.2 µM)", "Tested on": "HCC-827", "relative viability": 0.325}
{"Compound": "Nc1cccc2c1CN(C1CCC(=O)NC1=O)C2=O (centres undefined) [Lenalidomide] + Nc1nc2[nH]cc(CCc3ccc(C(=O)N[C@@H](CCC(=O)O)C(=O)O)cc3)c2c(=O)[nH]1 [Pemetrexed] (partner 0.2 µM)", "Tested on": "HCC-827", "relative viability": 0.269}
{"Compound": "Nc1cccc2c1CN(C1CCC(=O)NC1=O)C2=O (centres undefined) [Lenalidomide] + O=C(CCCCCCC(=O)Nc1ccccc1)NO [Vorinostat] (partner 1 µM)", "Tested on": "HCC-827", "relative viability": 0.763}
